- STUDY_TARGET: Myo3, P36006
- TEST_PROTOCOL: SPOT array
- RUN_PARAMETERS: median of control spots 468
READOUT_TYPE: SPOT intensity

>  <BINDER>
DKSRPPRPPPKPLHL

>  <RESULT>
160

$$$$

P: FPPKRKPLLRPQRSD
Q: RRSKSLPTTPGIRSG
Returns: the argument ( P or Q ) having the larger SPOT intensity. Pick one; state its label.
P

A: TYNRTAFQIPGDQSI
B: QPQRTAPKPPISAPR
C: ISRRRLPVIMHRLKM
Arrange by SPOT intensity, high to low. // respond by listing labels in the order requested
B, C, A
(B: 294, C: 7, A: 0)

The reported numbers originate from paper PMC2756588.
